Target: IGFR-1 (Homo sapiens)
Construct: Kinases are expressed as either kinase domains or full length constructs; made in house
Sequence (P08069 31-1367): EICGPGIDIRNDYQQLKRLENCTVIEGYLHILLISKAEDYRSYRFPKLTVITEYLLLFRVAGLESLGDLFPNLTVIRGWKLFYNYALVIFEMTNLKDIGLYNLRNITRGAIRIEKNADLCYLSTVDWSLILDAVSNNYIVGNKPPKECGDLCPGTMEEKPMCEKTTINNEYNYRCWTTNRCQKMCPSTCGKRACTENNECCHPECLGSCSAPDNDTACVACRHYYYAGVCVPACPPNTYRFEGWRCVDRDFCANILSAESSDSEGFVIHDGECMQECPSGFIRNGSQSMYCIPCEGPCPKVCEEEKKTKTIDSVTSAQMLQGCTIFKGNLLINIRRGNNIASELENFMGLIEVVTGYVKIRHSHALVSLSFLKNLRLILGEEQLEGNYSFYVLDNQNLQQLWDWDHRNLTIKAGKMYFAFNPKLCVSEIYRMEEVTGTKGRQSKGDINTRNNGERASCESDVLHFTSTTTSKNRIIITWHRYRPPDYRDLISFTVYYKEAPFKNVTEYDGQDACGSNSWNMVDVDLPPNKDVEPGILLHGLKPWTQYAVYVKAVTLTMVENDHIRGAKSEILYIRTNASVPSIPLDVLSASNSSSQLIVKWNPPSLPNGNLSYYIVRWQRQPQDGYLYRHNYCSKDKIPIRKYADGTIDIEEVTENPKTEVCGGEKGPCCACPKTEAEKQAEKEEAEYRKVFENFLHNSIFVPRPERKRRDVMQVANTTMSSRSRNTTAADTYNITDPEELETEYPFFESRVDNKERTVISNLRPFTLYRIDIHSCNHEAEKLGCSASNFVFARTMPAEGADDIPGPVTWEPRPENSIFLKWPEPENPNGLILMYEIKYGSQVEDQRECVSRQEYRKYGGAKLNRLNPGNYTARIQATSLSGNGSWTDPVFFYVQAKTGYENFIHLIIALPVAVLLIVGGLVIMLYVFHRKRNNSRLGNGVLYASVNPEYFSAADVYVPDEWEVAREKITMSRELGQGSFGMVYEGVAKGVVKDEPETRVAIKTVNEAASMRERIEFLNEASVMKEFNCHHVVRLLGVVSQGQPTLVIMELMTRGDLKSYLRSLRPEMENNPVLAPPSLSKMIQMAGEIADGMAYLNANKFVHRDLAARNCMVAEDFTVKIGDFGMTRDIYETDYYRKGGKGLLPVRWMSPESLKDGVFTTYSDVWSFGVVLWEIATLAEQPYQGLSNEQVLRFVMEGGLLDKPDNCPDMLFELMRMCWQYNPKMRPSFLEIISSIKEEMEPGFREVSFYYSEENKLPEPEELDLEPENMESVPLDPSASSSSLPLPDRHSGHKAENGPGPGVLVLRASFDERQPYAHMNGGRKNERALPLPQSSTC
Test: Kinase inhibition assay (33P transfer), IGFR-1
Type: biochemical
Settings: Table 2, class symbols A-E
pIC50: −log10 of the molar value.
VALUE_KIND: pIC50

| COMPOUND | RESULT |
| --- | --- |
| COC(=O)c1ccc(-c2cc(Nc3ncnc(NCc4ccccc4OC)n3)[nH]n2)cc1 [Compound 815] | < 4.98 |
| COCCNc1ncnc(Nc2cc(-c3ccc(C(=O)OC)cc3)n[nH]2)n1 [Compound 816] | 4.91 to 5.02 |
| O=C(O)Cc1cccc(Nc2ncnc(Nc3ccc(Cl)cc3F)n2)c1 [Compound 968] | 4.92 to 5.03 |
| Cc1ccc(-c2cc(Nc3ncnc(Nc4cc(C)ccc4C)n3)[nH]n2)cc1 [Compound 1125] | > 5.97 |
| COc1cc(Nc2ncnc(-c3cccnc3NC(C)c3ccccc3)n2)cc(OC)c1OC (centres unmarked) [Compound 843] | < 5.01 |
| CN(c1ccc2c(cnn2Cc2ccccc2)c1)c1ncnc(Nc2cccc(Cn3ccnn3)c2)n1 [Compound 677] | 5.14 to 5.31 |
| COc1cc(Nc2ncnc(Nc3ccc(OCCO)cc3)n2)cc(OC)c1OC [Compound 636] | < 4.96 |
| O=C(O)Cc1cccc(Nc2ncnc(-c3cccnc3Nc3ccccc3)n2)c1 [Compound 1094] | < 4.95 |

Incoming: So what's the measured pIC50 for this one? COc1ccc(Nc2ncnc(N(C)c3ccc(S(=O)(=O)O)cc3)n2)cc1OC [Compound 798]
Outgoing: < 4.97

Incoming: Follow-up item: Fc1ccc(CNc2ncccc2-c2ncnc(Nc3ccc(N4CCOCC4)cc3)n2)cc1 [Compound 1106]
Outgoing: < 5.01
